target: M2 protein of A/Hong Kong/483/1997, expressed on cells (Influenza A virus A/Hong Kong/483/1997 (H5N1))

BINDER: 3255_J06 (antibody, V domains shown) VH: QVQLQESGPGLVKPSETLSLTCTVSGASISSDYWSWIRLPPGKGLEWIGYIYNRGSTKYTPSLKSRVTISLDTAENQFSLRLRSVTAADTAVYYCARHVGGHTYGIDYWGQGTLVTVSS VL: DIQMTQSPSSLSASVGDRVTITCRASQSISNYLNWYQHKPGEAPKLLNYAASSLQSGVPSRFSASGSGTDFTLSISGLQPEDFATYYCQQSYNTPITFGPGTRLEIK
FACS M2-HK MFI [MFI]: 442
//
BINDER: 3241_G23 (antibody, V domains shown) VH: QVQLQQSGPGLVKPSQTLSLTCTVSGGPVSGGGYSWNWIRQRPGQGLEWVGFMFHSGSPRYNPTLKSRITISVDTSKNLVSLKLSSVTAADTAVYFCARVGQMDKYYAMDVWGQGTTVTVSS VL: DIQMTQSPSSLSSSVGDRVTITCRASQSIGAYVNWYQQKAGKAPQVLIFGASNLQSGVPSRFSGSGSGTDFTLTISSLQPEDFATYFCQQTYSTPITFGQGTRLEIK
FACS M2-HK MFI [MFI]: 1700
//
BINDER: 3259_J21 (antibody, V domains shown) VH: QVQLQESGPRVVRPSETLSLTCTVSGGSISSYNWIWIRQPPGKGLEWIGHIYDYGRTFYNSSLQSRPTISVDASKNQLSLRLTSVTASDTAVYYCARPLGILHYYAMDLWGQGTTVTVSS VL: DIQMTQSPLSVSVSVGDRVTIACRASQSIDKFLNWYQQKPGKAPKLLIYGASNLHSGAPSRFSASGSGTDFTLTITNIQTEDFATYLCQQSFSVPAFGGGTKVEIK
FACS M2-HK MFI [MFI]: 1670
